test system: Fibroblast; assay: Multiplex assay against human fibroblast; format: toxicity, cell-based; details: 24 h, 10 µM, compound concentration 10 uM, replicate 1
MEASUREMENT_KIND: Population Membrane Permeable-Phenotype (%)

>>> assay_value("Oc1cccc(-c2nc(N3CCOCC3)c3oc4ncccc4c3n2)c1")
37
>>> assay_value("CC(C)c1cc(Nc2nc(N3CCC[C@H](N)C3)ncc2C(N)=O)cc(C(C)C)n1")
17
>>> assay_value("CC(Cc1ccc(O)c(O)c1)C(C)Cc1ccc(O)c(O)c1 (configuration not stated) [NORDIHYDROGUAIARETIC ACID]")
7
>>> assay_value("N#CCNC(=O)c1ccc(-c2ccnc(Nc3ccc(N4CCOCC4)cc3)n2)cc1")
29
>>> assay_value("CN(c1cc(C(F)(F)F)nc(OCCC(=O)O)n1)c1cccc2c1CCC2")
21
>>> assay_value("Cc1c(Nc2ccc(S(=O)(=O)N3CCN(C)CC3)cc2F)nc2ccc(Nc3cnn(C4CC4)c3)cn2c1=O")
7
>>> assay_value("c1ccc(-c2oc3ncnc(NC[C@@H]4CCCO4)c3c2-c2ccccc2)cc1")
13
>>> assay_value("C[C@@H](Oc1cc(-n2cnc3ccc(CN4CCN(C)CC4)cc32)sc1C(N)=O)c1ccccc1C(F)(F)F")
35
>>> assay_value("CC[C@@]1(O)C(=O)OCc2c1cc1n(c2=O)Cc2cc3ccccc3nc2-1")
6
>>> assay_value("Cl.Cn1c2c(c3ccc(Cl)c(Cl)c31)C(C#N)C1(CCNCC1)NC2=O (configuration not stated)")
6
>>> assay_value("Cc1c(P(=S)(c2ccccc2)c2ccccc2)n2ccccc2[n+]1C/C=C/c1ccccc1.[Br-]")
8
>>> assay_value("CCOC(=O)CCNc1cc(N2CCc3ccccc3CC2)nc(-c2ccccn2)n1")
6

###

test system: U2OS; assay: Multiplex assay against U2OS; format: toxicity, cell-based; details: human, 24 h, 10 µM, compound concentration 10 uM, replicate 1
Entries and their measured Population Hoechst High Intensity Objects (%) follow.
MEASUREMENT_KIND: Population Hoechst High Intensity Objects (%)

>>> assay_value("CC(/C=C1\\SC(=S)N(CCCC(=O)Nc2ccc(C(=O)O)c(O)c2)C1=O)=C\\c1ccccc1")
5
>>> assay_value("Cl.Cn1c2c(c3ccc(Cl)c(Cl)c31)C(C#N)C1(CCNCC1)NC2=O (centres undefined)")
16
>>> assay_value("CC(Cc1ccc(O)c(O)c1)C(C)Cc1ccc(O)c(O)c1 (centres undefined) [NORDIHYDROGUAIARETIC ACID]")
14
>>> assay_value("Cc1ccc(S(=O)(=O)NC2c3ccccc3Oc3ccccc32)cc1")
6
>>> assay_value("C[C@@H](Oc1cc(-n2cnc3ccc(CN4CCN(C)CC4)cc32)sc1C(N)=O)c1ccccc1C(F)(F)F [GSK-461364]")
8
>>> assay_value("Cl.NC[C@@H]1O[C@H](C23CC4CC(CC(C4)C2)C3)Cc2c1ccc(O)c2O")
6
>>> assay_value("CCCCN(CC)c1nc(C)nc2c1c(C)cn2-c1c(C)cc(C)cc1C.Cl")
5
>>> assay_value("C=CC(=O)Nc1cc(-n2c(=O)ccc3cnc4ccc(-c5ccc(NS(C)(=O)=O)cc5)cc4c32)ccc1C")
3
>>> assay_value("c1ccc(-c2oc3ncnc(NC[C@@H]4CCCO4)c3c2-c2ccccc2)cc1")
12
